System: Staphylococcus aureus
Settings: Concentration 20 uM; ASSAY_TEST Inhibition of Bacterial Growth; detection method Absorption (OD600); MEDIA CAMHB; plate type 384well; NBS; CORNING #3640; time 18 hr
Description: Antibacterial activity against Staphylococcus aureus MRSA ATCC 43300 (CO-ADD:GP_020); MIC in CAMBH media, using NBS plates, by OD(600)
Measured potencies and affinities stand elsewhere.
Entries and their Inhibition
# output: bare number, implied unit %

molecule: c1ccc2c(c1)Nc1ccccc1S2 [PHENOTHIAZINE]
valueUnits: %
Inhibition: -22.92
//
molecule: CC(C)c1cccc(C(C)C)c1O [PROPOFOL]
valueUnits: %
Inhibition: -2.39

Let's switch to this molecule now.
input: # returns recorded Inhibition (system: Staphylococcus aureus) for CCOC(=O)C1=C(COCCN)NC(C)=C(C(=O)OC)C1c1ccccc1Cl (stereo not drawn) [AMLODIPINE]
output: -19.31

----------
Listed here are compounds together with their documented Inhibition.
Tested on: Staphylococcus aureus
Conditions: Concentration 20 uM; ASSAY_TEST Inhibition of Bacterial Growth; detection method Absorption (OD600); MEDIA CAMHB; plate type 384well; NBS; CORNING #3640; time 18 hr
Potency and affinity values are given separately.
Please respond with the number in % and leave the unit unwritten.

compound: CC[C@@H](C(N)=O)N1CCCC1=O
value: 18.53
//
compound: c1cncc([C@@H]2CCCN2)c1
value: 12.8
//
compound: NCCc1ccccn1
value: 1.79
//
compound: CN1[C@@H]2CC[C@H]1CC(OC(=O)C(CO)c1ccccc1)C2 (some centres undefined)
value: 1.53
//
compound: CCCC(C)(COC(N)=O)COC(=O)NC(C)C (centres undefined)
value: -20.34
//
compound: CCOC(=O)c1ncn2c1CN(C)C(=O)c1cc(F)ccc1-2
value: -0.36
//
compound: C[N+]1(C)CCCC(OC(=O)C(O)(c2ccccc2)c2ccccc2)C1.[Br-] (centres undefined) [MEPENZOLATE BROMIDE]
value: 1.79
//
compound: CN1CCN(C(=O)O[C@H]2c3nccnc3C(=O)N2c2ccc(Cl)cn2)CC1
value: -7.93
//
compound: CS(=O)(=O)Nc1ccc(Cc2noc(-c3ccc4[nH]cc(CCN)c4c3)n2)cc1.O.O
value: 12.02
//
compound: CCOC(=O)c1cncn1[C@H](C)c1ccccc1 [ETOMIDATE]
value: 11.17

input: Can you look up the measured Inhibition of `CC[C@]1(O)CC[C@H]2[C@@H]3CCC4=CCCC[C@@H]4[C@H]3CC[C@@]21C` for me?
output: -6.51

input: Any idea what its Inhibition is? The compound is CC(O)(CS(=O)(=O)c1ccc(F)cc1)C(=O)Nc1ccc(C#N)c(C(F)(F)F)c1 (centres undefined) [BICALUTAMIDE]
output: -1.51

input: Would you kindly share the measured Inhibition for COc1ccc(C(CN(C)C)C2(O)CCCCC2)cc1.Cl (centres undefined) [VENLAFAXINE HYDROCHLORIDE] ?
output: 5.17

input: Item `Cl.O.Oc1ccc2c3c1O[C@H]1c4[nH]c5ccccc5c4C[C@@]4(O)C(C2)N(CC2CC2)CC[C@]314` has what recorded Inhibition?
output: -20.11

input: Requested read-out: Inhibition. Entry: Cl.c1ccc2c(CC3=NCCN3)cccc2c1 [NAPHAZOLINE HYDROCHLORIDE]
output: 21.19

----------
Test system: Escherichia coli
Details: Concentration 20 uM; ASSAY_TEST Inhibition of Bacterial Growth; detection method Absorption (OD600); MEDIA CAMHB; plate type 384well; NBS; CORNING #3640; time 18 hr
Description: Antibacterial activity against Escherichia coli ATCC 25922 (CO-ADD:GN_001); MIC in CAMBH media using NBS plates, by OD(600)
Potency and affinity values are given separately.
The following molecules are shown together with reported Inhibition values.
Your answer is read as %, so omit the unit and give the number.

molecule: CC(C)NCC(O)COc1cccc2[nH]ccc12 (stereo not drawn) [PINDOLOL]
Inhibition (%): 5.35

molecule: CN1CC[C@@]23CCCC[C@@H]2[C@@H]1Cc1ccc(O)cc13.O=C(O)C(O)C(O)C(=O)O
Inhibition (%): 6.67

molecule: CCC1(c2ccc(N)cc2)CCC(=O)NC1=O (stereo not drawn) [AMINOGLUTETHIMIDE]
Inhibition (%): 2.02

molecule: O=C(O)C(Cl)Cl [DICHLOROACETIC ACID]
Inhibition (%): 3.62

molecule: Cl.O.Oc1ccc2c3c1O[C@H]1c4[nH]c5ccccc5c4C[C@@]4(O)C(C2)N(CC2CC2)CC[C@]314
Inhibition (%): 6.59

molecule: COc1ccc2[nH]cc(C3=CCNCC3)c2c1.COc1ccc2[nH]cc(C3=CCNCC3)c2c1.O=C(O)CCC(=O)O
Inhibition (%): 5.51

molecule: Cl.O=C1CC2(CCCC2)CC(=O)N1CCCCN1CCN(c2ncccn2)CC1 [BUSPIRONE HYDROCHLORIDE]
Inhibition (%): 4.5

molecule: CC(C(=O)O)c1ccc(-c2ccccc2)c(F)c1 (stereo not drawn) [FLURBIPROFEN]
Inhibition (%): -5.67

input: Lab note: need Inhibition with Escherichia coli for entry O=C(O)CCCc1ccc(N(CCCl)CCCl)cc1 [CHLORAMBUCIL] , please look it up.
output: 8.33

input: Value wanted: Inhibition (Escherichia coli) of entry COCCCOc1ccnc(C[S+]([O-])c2nc3ccccc3[nH]2)c1C (stereo not drawn) [RABEPRAZOLE]
output: 7.16

input: Fill in the recorded Inhibition for this molecule, with Escherichia coli as test system: C[N+]1(C)CCN(c2ccccc2)CC1.[I-] [DIMETHYLPHENYLPIPERAZINIUM IODIDE]
output: 3.59

input: # returns recorded Inhibition (system: Escherichia coli) for CCCCCNC(=N)N/N=C/c1c[nH]c2ccc(OC)cc12.O=C(O)/C=C\C(=O)O [TEGASEROD MALEATE]
output: -0.84

input: Provide the documented Inhibition with Escherichia coli as the system for O=C1CN=C(c2ccccc2)c2cc([N+](=O)[O-])ccc2N1 [NITRAZEPAM]
output: 5.89

input: Record CN1C(=O)CN=C(c2ccccc2)c2cc([N+](=O)[O-])ccc21 [NIMETAZEPAM] : what is its Inhibition with Escherichia coli?
output: 1.04

input: Notebook entry, Escherichia coli assay: Inhibition of `Br.Br.CN1CC[C@]2(c3cccc(O)c3)Cc3nc4ccccc4cc3C[C@H]2C1.O` = ?
output: 1.66

input: GET /values?readout=Inhibition&system=Escherichia coli&item= CCCC(C)(COC(N)=O)COC(=O)NC(C)C (stereo not drawn) [CARISOPRODOL]
output: 4.18

input: API: value(readout=Inhibition, system=Escherichia coli) for record CNC(=O)Oc1ccc2c(c1)[C@]1(C)CCN(C)C1N2C.CNC(=O)Oc1ccc2c(c1)[C@]1(C)CCN(C)C1N2C.O=S(=O)(O)O (stereo partly drawn)
output: -3.79

input: Hello, I am looking for reported Inhibition with Escherichia coli for Br.COc1ccc2c(c1)[C@]13CCCC[C@@H]1[C@H](C2)N(C)CC3.O [DEXTROMETHORPHAN HYDROBROMIDE] . Could you help?
output: 4.79

----------
System: Staphylococcus aureus
Conditions: Concentration 20 uM; ASSAY_TEST Inhibition of Bacterial Growth; detection method Absorption (OD600); MEDIA CAMHB; plate type 384well; NBS; CORNING #3640; time 18 hr
Measured potencies and affinities stand elsewhere.
Parameter Inhibition: see the listing below.
# number only, unit % dropped from output

Check out these entries, answers already filled in.
molecule: O=C1Nc2ccc(Cl)cc2C(c2ccccc2Cl)=NC1O (centres undefined)
measuredOn: Staphylococcus aureus
measuredParameter: Inhibition
value: -3.94
--
molecule: O.O=P1(N(CCCl)CCCl)NCCCO1 (centres undefined) [CYCLOPHOSPHAMIDE]
measuredOn: Staphylococcus aureus
measuredParameter: Inhibition
value: 2.64
--
molecule: C#C[C@]1(O)CC[C@H]2[C@@H]3CCC4=CC(=O)CC[C@@H]4[C@H]3CC[C@@]21C
measuredOn: Staphylococcus aureus
measuredParameter: Inhibition
value: -0.74

Pending molecule:
input: Need Inhibition, item `COc1ccc2[nH]cc(C3=CCNCC3)c2c1.COc1ccc2[nH]cc(C3=CCNCC3)c2c1.O=C(O)CCC(=O)O`
output: 16.86

----------
Tested on: Staphylococcus aureus
Conditions: Concentration 20 uM; ASSAY_TEST Inhibition of Bacterial Growth; detection method Absorption (OD600); MEDIA CAMHB; plate type 384well; NBS; CORNING #3640; time 18 hr
Measured potencies and affinities stand elsewhere.
Answer F if Inhibition is under 10%, and T if it is 10% or more.

input: Is Inhibition at least 10%? Consider CCCN1C[C@H](CSC)C[C@@H]2c3cccc4[nH]cc(c34)C[C@H]21.CS(=O)(=O)O [PERGOLIDE MESYLATE]
output: T

----------
Reported values of Inhibition for individual entries
System: Escherichia coli
Details: Concentration 20 uM; ASSAY_TEST Inhibition of Bacterial Growth; detection method Absorption (OD600); MEDIA CAMHB; plate type 384well; NBS; CORNING #3640; time 18 hr
Measured potencies and affinities stand elsewhere.
Answer with a number only, understood to be in %.

compound: Nc1nc2ccc(Cl)cc2c2nc(-c3ccco3)nn12
Inhibition [%]: 5.2
--
compound: CC(C)C(=O)Nc1ccc([N+](=O)[O-])c(C(F)(F)F)c1 [FLUTAMIDE]
Inhibition [%]: 4.1
--
compound: Cl.c1ccc2c(CC3=NCCN3)cccc2c1 [NAPHAZOLINE HYDROCHLORIDE]
Inhibition [%]: 2.28

# ---- query compound ----
input: For the compound shown here, Cc1ncc2n1-c1ccc(Cl)cc1C(c1ccccc1F)=NC2.Cl [MIDAZOLAM HYDROCHLORIDE] , give the reported Inhibition.
output: 7.58

Data credit: ChEMBL document CHEMBL4513141
